Tested on: CSNK2A1;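 further: KINOMEscan kinase panel screen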
Details: concentration: 1 μM, replicates: in singlicate; n = 1
Task for the reader: assign each of the following compounds its reported %Inh.
// return numeric value only (unit: %, not printed)

Request: Report %Inh for Cc1c(O)cccc1Nc1ccnc2ccc(C(F)(F)F)cc12.Cl [GW466413] please.
Response: 0

Request: Please give the measured %Inh for this compound: COc1ccc(C2=C(Nc3cccc(C(=O)O)c3)C(=O)NC2=O)cc1 [SB-390765]
Response: 18

Request: Tell me the measured %Inh of O=C(O)COc1ncnc2cc(-c3ccc4[nH]ncc4c3)sc12 , please.
Response: 37

Request: Reported %Inh, compound O=c1cc(N2CCOCC2)nc2n(Cc3cccc(Cl)c3Cl)ccn12 [GSK2286295] : ____
Response: 2

Request: Suppose we examine the compound O=C(Nc1n[nH]c2nc(-c3nccs3)c(Br)cc12)C1CC1 [SB-742251] ; what %Inh value has been reported?
Response: 0

Request: Reported %Inh, compound COc1ccc(Nc2nccc(-c3cccc(NC(=O)c4cc5cc(F)ccc5[nH]4)c3)n2)cc1 [GSK1229782] : ____
Response: 8

Request: Which measured %Inh value corresponds to COc1ccc2nc(-c3cccc(C)n3)nc(Nc3ccncc3)c2c1 [GSK204919] ?
Response: 4

Request: Can you share its %Inh? I mean this compound: O=C1NC(=O)C(N2CCc3ccccc32)=C1c1ccccc1Cl [SB-373598]
Response: 2

Request: So what's the measured %Inh for this one? Cc1c(Cn2ccn3c(=O)cc(N4CCOCC4)nc23)cccc1C(F)(F)F [GSK2289044]
Response: 0

Request: Bench note: what %Inh did O=C(Nc1n[nH]c2nc(-c3nccs3)c(Br)cc12)C1CCCC1 [SB-742609] show?
Response: 0

Request: Consider the compound shown here: CCCc1ccc(S(=O)(=O)NC2CCN(c3ccnc(Nc4ccc(F)cc4)n3)C2)cc1 (centres unmarked) [GSK1379715] What is its recorded %Inh?
Response: 0

Request: May I ask what %Inh has been recorded for O=C(Nc1ccccc1)Nc1cccc(Oc2ccc3nccn3n2)c1 ?
Response: 0

Request: Using the record for C[C@@H]1CCCCN1c1cc(-c2ccc3c(N)n[nH]c3c2)nc(N)n1 [GSK2258759] , report its %Inh.
Response: 6

Request: Entry under review: Cc1cccc(-c2cc(Nc3ccncc3)c3ccccc3n2)n1 [GSK223675] . Reported %Inh?
Response: 7

Request: Name the reported %Inh value associated with the compound Fc1cc(Cl)ccc1Nc1ccnc2cc(I)ccc12 [GW551191]
Response: 0

Request: Which measured %Inh value corresponds to NC(=O)c1nnc2ccccc2c1N ?
Response: 11

Request: Quick one: %Inh for Cc1cc(-c2ccc3c(c2)CC[C@@H](N[C@@H](C)c2ccccc2)C3)cnc1N.Cl [GW412617] ?
Response: 2

Request: I have this compound here, Cn1ccc2ncnc(Oc3ccc(Nc4nc5ccccc5[nH]4)cc3)c21 , and I need its recorded %Inh.
Response: 0

Request: Fill in the blank: the reported %Inh of Cc1cccc(-c2nc(C)cc(Nc3ccncc3)n2)n1 [GSK257997] is ____.
Response: 2

Request: Would you kindly share the measured %Inh for COc1cc(Nc2nccc(N3CCC(NC(=O)Nc4cc(C)ccc4C)C3)n2)cc(OC)c1OC (centres unmarked) [GSK1379762] ?
Response: 25
